B1: HDV Ribozyme (parent)
chain: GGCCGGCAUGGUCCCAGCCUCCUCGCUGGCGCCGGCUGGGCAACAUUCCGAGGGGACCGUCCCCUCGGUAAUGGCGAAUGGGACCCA

- Variants of: B1
- experiment: self-cleavage, relative activity (ratio to wild type); higher = more cleavage; co-transcriptional
metric: self-cleavage
Numbers only.

The examples below pair each entry with its known result.
[[record]]
variantspec = "G39C C75A"
readoutnumber = 0.142

[[record]]
variantspec = "C24G G34C"
readoutnumber = 0.0437

[[record]]
variantspec = "G39C G80A"
readoutnumber = 0.0511

[[record]]
variantspec = "C24A C44G"
readoutnumber = 0.256

[[record]]
variantspec = "G34U U47G"
readoutnumber = 0.267


// batch mode: one self-cleavage value per listed entry
1. U9C C57A
2. C30A G40C
3. C36G A56U

1: 1.09; 2: 0.0277; 3: 0.111

// batch mode: one self-cleavage value per listed entry
1. G28U U60C
2. C4U C75G
3. C3G U65A
4. G10U C18U
5. U20G C48A
6. C21G G76U
7. G40C U46A

1. 0.0755
2. 0.122
3. 0.648
4. 0.12
5. 0.0723
6. 0.0583
7. 0.0339
